System: rape (Brassica napus)
Assay: Test B pre-/postemergence
Assay type: in vivo
Parameters: key: 0 is no effect; 10 is complete control
Settings: Rate 250 g/ha, Preemergence
Simple rule here: Plant response rating, Rape less than 5 is TRUE, otherwise FALSE.

Example results:
[[record]]
molecule = "Cc1cnc(-c2ccc(C(F)(F)F)cc2)nc1Cn1ccc(C(F)(F)F)n1 [compound 9]"
category = "FALSE"

[[record]]
molecule = "Cc1cnc(-c2ccc(C(F)(F)F)cc2)nc1Cn1cc(Br)cn1 [Compound 54]"
category = "TRUE"


Query :: Determine whether this molecule shows Plant response rating, Rape lower than 5 (ties excluded): Cc1cnc(-c2ccc(C(F)(F)F)cc2)nc1C(=O)c1cccc(C(F)(F)F)c1 [Compound 73]
Result :: FALSE

Query :: Please determine if Cc1cnc(-c2ccc(OC(F)(F)F)cc2)nc1Cc1cccc(C(F)(F)F)c1 [Compound 16] is below 5 in terms of Plant response rating, Rape.
Result :: TRUE
